Please respond with reported apparent KD of MS2 coat protein for every item in the list.
# System: MS2 coat protein
# protocol.details: apparent KD of MS2 coat protein; designed switch direction (-1 OFF switch, 1 ON switch): 1; higher = weaker reporter binding
# test.context: input ligand: none
Numbers only; they are read as nM.

Item: AGCUAAUACGAAGGAUAUACUGACAUGAGGAUCACCCAUGUCUACAUGAUUUAUUGUGAUCACAUGUAGAAGGUCGUACUAACA [SameState NG2 #23] (Eterna round: R96, puzzle: Same State NG 2) | apparent KD of MS2 coat protein: 79.8

Item: GAGAGAGGGUGAGGAUAUUUAGUGAUAAUGAUAGGAGAAGGCACAGACAUGAGGAUCACCCAUGUGGGAAUAAUCCAGAGAGAG [Parity 9 - Jieux - Same State NG 1] (Eterna round: R96, puzzle: Same State NG 1) | apparent KD of MS2 coat protein: 186

Item: GGAGCCAAGGCAGGAUAUUCAUAUUAAAUAACAUGAGGAUCACCCAUGUUGGCCAGAAGGCCAUGGGAGAAGGGCCAUGGCUCG [Xeonanis - 13 mod22] (Eterna round: R96, puzzle: Same State NG 2) | apparent KD of MS2 coat protein: 87.2

Item: CUGAGCAAUCUAGGAUAUCACGUCGAUUAGACGUGAGAAGGAGAUCAUAACAUGAGGAUCACCCAUGUAUUACAUGAAGCUCAG [SSNG1/7-A2] (Eterna round: R96, puzzle: Same State NG 1) | apparent KD of MS2 coat protein: 19.1

Item: UUGUAUCGAAAAGGAUAUCAUGGGCAACGGUACUGAGAAGGUUUCGAGCUCGAACGAGCAACAUGAGGAUCACCCAUGUCCGAG [Eternabot solution 50] (Eterna round: R96, puzzle: Same State NG 1) | apparent KD of MS2 coat protein: 212

Item: GCUACAUGAGGAUCACCCAUGUGUGCGUGGGAGUGAGUGGCUUAGGAUAUCUAUGAUUUUAGUUGAGAGAAGGAGGAUUGCUGU [SS-NG3-LRO10] (Eterna round: R96, puzzle: Same State NG 3) | apparent KD of MS2 coat protein: 175

Item: UGGCUCAGACGAGGAUAUAUGUGAUCACAUGAGGAUCACCCAUGUCUCGAGCUUCGGCUCGAGACAUAGAAGGCGUCUGAGCCU [SSNG2/3-A3] (Eterna round: R96, puzzle: Same State NG 2) | apparent KD of MS2 coat protein: 17.8

Item: AGAGGAGGAGCAGGAUAUGCGAAGAAGAACGUGGUAGAAGGGCUCAUGCGAUGACAUGAGGAUCACCCAUGUACCUCGCGAGGA [AK SSNG1-V2-9] (Eterna round: R96, puzzle: Same State NG 1) | apparent KD of MS2 coat protein: 186

Item: GGUCGGACUCACAUGAGGAUCACCCAUGUUGGCGAAAGCCGGCAGGAUAUCUGUCCGAAAAGGUCAGAGAAGGGUCAACCGACC [Fiskers NG3ss - 59] (Eterna round: R96, puzzle: Same State NG 3) | apparent KD of MS2 coat protein: 267
